# Measurement Description: Apparent permeability from apical side to basolateral side in MDCK cells at 10 uM after 3 hrs by LC-MS/MS analysis
# Format: ADME, cell-based, Canis lupus familiaris
# Condition Notes: dog
Recorded Metric: Papp A→B at 3 h, 10 µM

>>> value_measured("Cn1cc(-c2cc(F)cc(N3CCn4c(cc5c4CCCC5)C3=O)c2CO)cc(Nc2ccc(N3CCN(C4COC4)CC3)cn2)c1=O")
"> 10 ×10⁻⁶ cm/s"
>>> value_measured("CN1CCN(c2ccc(Nc3cc(-c4cc(F)cc(N5CCn6c(cc7c6CCCC7)C5=O)c4CO)cn(C)c3=O)nc2)CC1")
"1 to 10 ×10⁻⁶ cm/s"
>>> value_measured("Cn1cc(-c2cccc(N3CCn4c(cc5c4CCCC5)C3=O)c2CO)cc(Nc2ccc(N3CCN(C4COC4)CC3)cn2)c1=O")
"1 to 10 ×10⁻⁶ cm/s"

# evaluate next
In: Retrieve Papp A→B at 3 h, 10 µM measured for `CN1CCN(c2ccc(Nc3cc(-c4cccc(N5CCn6c(cc7c6CCCC7)C5=O)c4CO)cn(C)c3=O)nc2)CC1` and print it.
Out: 1 to 10 ×10⁻⁶ cm/s

* * *

# Measurement Description: Total clearance in mouse
# Format: ADME, organism-based
# Condition Notes: in vivo
Recorded Metric: clearance (L/h/kg)
Express the result in L/h/kg but write the number alone.

In: Determine from records and report clearance for `Cn1cc(-c2cccc(N3CCc4c(sc5c4CC(C)(C)C5)C3=O)c2CO)cc(Nc2ccncn2)c1=O`
Out: 1.32

* * *

# Experimental Target: Tyrosine-protein kinase BTK (Homo sapiens)
# Sequence (Q06187 whole entry): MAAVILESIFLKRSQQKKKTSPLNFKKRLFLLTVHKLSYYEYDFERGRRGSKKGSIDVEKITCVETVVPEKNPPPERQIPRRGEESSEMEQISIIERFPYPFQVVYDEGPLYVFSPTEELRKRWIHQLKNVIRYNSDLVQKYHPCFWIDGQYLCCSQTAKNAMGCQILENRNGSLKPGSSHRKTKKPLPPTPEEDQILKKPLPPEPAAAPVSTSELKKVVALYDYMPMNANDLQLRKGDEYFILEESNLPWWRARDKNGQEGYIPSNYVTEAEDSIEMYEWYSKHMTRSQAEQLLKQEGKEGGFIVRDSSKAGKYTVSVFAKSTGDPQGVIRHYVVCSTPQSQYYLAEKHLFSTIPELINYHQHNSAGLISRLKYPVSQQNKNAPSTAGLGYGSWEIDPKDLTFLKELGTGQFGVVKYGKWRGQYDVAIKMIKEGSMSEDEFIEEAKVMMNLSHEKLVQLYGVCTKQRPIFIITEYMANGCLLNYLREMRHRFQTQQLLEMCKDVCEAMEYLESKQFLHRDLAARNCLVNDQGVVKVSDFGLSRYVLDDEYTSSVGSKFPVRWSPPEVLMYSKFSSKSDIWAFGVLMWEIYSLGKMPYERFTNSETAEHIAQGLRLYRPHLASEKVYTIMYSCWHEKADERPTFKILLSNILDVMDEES
Some molecules, each annotated with its measured IC50.
Give the number; nM is assumed, so skip it.

Example molecules with recorded IC50:
>>> value_measured("CN1CCN(c2ccc(Nc3cc(-c4cccc(N5CCn6c(cc7c6CCCC7)C5=O)c4CO)cn(C)c3=O)nc2)CC1")
4
>>> value_measured("Cc1c(NC(=O)c2cc3c(s2)CCCC3)cccc1-c1cc(Nc2ccncn2)c(=O)n(C)c1")
42

Next item in the queue.
In: Determine its reported IC50: `Cn1cc(-c2cccc(N3CCn4c(cc5c4CCCC5)C3=O)c2CO)cc(Nc2ccc(N3CCN(C4COC4)CC3)cn2)c1=O`
Out: 8

* * *

For Tyrosine-protein kinase BTK (Mus musculus, UniProt P35991), measured pIC50 is reported for the entries below.
Scale: negative log10 of molar concentration, which is what pIC50 denotes.

Reference set (3 entries):
>>> value_measured("Cn1cc(-c2cccc(N3CCn4c(cc5c4CCCC5)C3=O)c2CO)cc(Nc2ccc(N3CCN(C4COC4)CC3)cn2)c1=O")
6.86
>>> value_measured("Cc1c(NC(=O)c2cc3c(s2)CCCC3)cccc1-c1cc(Nc2ccncn2)c(=O)n(C)c1")
6.13
>>> value_measured("Cn1cc(-c2cccc(N3CCc4cc(C(C)(C)C)ccc4C3=O)c2CO)cc(Nc2ccncn2)c1=O")
7.29

In: Lab note: record pIC50 of `Cn1cc(-c2cc(F)cc(N3CCn4c(cc5c4CCCC5)C3=O)c2CO)cc(Nc2ccc(N3CCN(C4COC4)CC3)cn2)c1=O` tested on Tyrosine-protein kinase BTK (Mus musculus, UniProt P35991).
Sequence (P35991 whole entry): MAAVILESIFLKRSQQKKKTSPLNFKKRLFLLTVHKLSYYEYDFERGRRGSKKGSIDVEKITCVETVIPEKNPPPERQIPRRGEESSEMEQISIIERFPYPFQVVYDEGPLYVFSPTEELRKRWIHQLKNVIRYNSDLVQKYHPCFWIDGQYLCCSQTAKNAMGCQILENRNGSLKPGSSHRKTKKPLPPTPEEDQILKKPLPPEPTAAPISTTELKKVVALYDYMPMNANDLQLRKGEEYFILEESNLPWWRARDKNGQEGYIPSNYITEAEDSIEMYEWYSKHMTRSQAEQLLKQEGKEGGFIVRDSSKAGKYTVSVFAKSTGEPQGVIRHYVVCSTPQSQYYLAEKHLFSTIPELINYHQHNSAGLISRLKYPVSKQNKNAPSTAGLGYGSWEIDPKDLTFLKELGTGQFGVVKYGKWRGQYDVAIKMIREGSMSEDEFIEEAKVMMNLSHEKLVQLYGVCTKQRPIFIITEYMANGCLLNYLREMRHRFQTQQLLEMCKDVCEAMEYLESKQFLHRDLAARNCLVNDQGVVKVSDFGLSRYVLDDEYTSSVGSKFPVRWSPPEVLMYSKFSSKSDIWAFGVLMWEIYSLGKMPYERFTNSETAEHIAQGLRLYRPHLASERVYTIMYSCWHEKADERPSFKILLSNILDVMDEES
Out: 8.00

In: Please tell me the measured pIC50 for `CN1CCN(c2ccc(Nc3cc(-c4cc(F)cc(N5CCn6c(cc7c6CCCC7)C5=O)c4CO)cn(C)c3=O)nc2)CC1` ; system: Tyrosine-protein kinase BTK (Mus musculus, UniProt P35991).
Out: 7.66

* * *

# Measurement Description: Oral bioavailability in rat at 5 mg/kg
# Assay type: ADME, organism-based
# Condition Notes: in vivo
Reported bioavailability is given for each of the following molecules.
Only the number, expressed in %, is required.

>>> value_measured("Cn1cc(-c2cccc(N3CCc4c(sc5c4CCCC5)C3=O)c2CO)cc(Nc2ccncn2)c1=O")
90
>>> value_measured("Cn1cc(-c2cc(F)cc(N3CCn4c(cc5c4CCCC5)C3=O)c2CO)cc(Nc2ccc(N3CCN(C4COC4)CC3)cn2)c1=O")
27

Shift focus to the following entry.
In: Look up bioavailability of `CN1CCN(c2ccc(Nc3cc(-c4cc(F)cc(N5CCn6c(cc7c6CCCC7)C5=O)c4CO)cn(C)c3=O)nc2)CC1` and report it.
Out: 52
